Where do the numbers come from? From the supplement of paper PMC6555819.

- Test system: LXRa:RXRa (NR concentration 270 nM, RXRa partner concentration 90 nM)
- MEASUREMENT DESCRIPTION: PBM binding z-score (relative to random genomic background probes); higher = stronger binding; sequences stand for … in GC…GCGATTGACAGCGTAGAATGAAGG
Tick Criterion met if PBM binding z-score is 4 or greater. Tick Criterion not met if PBM binding z-score is less than 4.

AGATGTAGGTTAGCTGGGGTCATTCAGACTAGGC : Criterion met
CAAACTCGGTCAAGAGGTCAAAGTCCGCTTCCCG : Criterion met
TCATATAGGAAAAAGGTGAAAGTCGGTGTGGTAA : Criterion not met
TCTTGTAGATCATGCAGGTTAAGAAAGCCTGAGT : Criterion not met
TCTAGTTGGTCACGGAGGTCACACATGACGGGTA : Criterion not met
CCTACTGGTCCATTCAGAGGTCATTGATCATATG : Criterion met
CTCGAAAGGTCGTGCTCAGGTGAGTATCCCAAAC : Criterion not met
TCTTGTAGATCAGCAGGTCAAGAAAGCTGGCCAA : Criterion not met
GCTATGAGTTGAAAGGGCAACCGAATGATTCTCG : Criterion not met
AGCTCTAGGTAAAGTTCAGTGAAAGATCGATAGA : Criterion not met

Is PBM binding z-score at least 4? Consider CGTCCAAGGTCAGCAGGTTAGTGAAAGCGACGTG
Criterion not met

Threshold query (PBM binding z-score >= 4) on AGTCAAAGTTCCTCTAGGTAACGTAAGATATGCT
Criterion not met

---

PBM binding z-score values for the sequences below.
- Tested on: LXRa homodimer (NR concentration 270 nM)
- MEASUREMENT DESCRIPTION: PBM binding z-score (relative to random genomic background probes); higher = stronger binding; sequences stand for … in GC…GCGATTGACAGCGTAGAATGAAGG
Form rule: numeric answer, no unit written next to it.

# example entries with known answers
TAGCCTAGGTCATTCAAGGGCCAGTATAGAAAGC : 0.681
CCTCGGAGGACAACAGAAGGTCAGAGCTGCCAGA : 0.922
CCTACTGGGCCACGAAAGGACATTGATTCAGTGA : 0.0181
CCTATTAGTTGACCATAAGGGCAACCCAAGCTCG : 0.597
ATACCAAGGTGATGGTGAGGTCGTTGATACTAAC : 0.268

Please look at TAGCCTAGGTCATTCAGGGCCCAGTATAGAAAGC and tell me its recorded PBM binding z-score on LXRa homodimer (NR concentration 270 nM).
0.608

Look up and report measured PBM binding z-score (LXRa homodimer (NR concentration 270 nM)) for the following sequence: ATCTCTAGGTAAAGTGCAGTGAAAGATCGATAGA
-0.00202

Enter recorded PBM binding z-score with LXRa homodimer (NR concentration 270 nM) for CGTCACAGTTCAAGGTAACGTAACAGAAAGCAGC here.
0.443

---

- System: PPARg:RXRa DBDmut IVT, anti-RXR (DBD mutation: RXRa K156A/R161A, NR concentration 270 nM, RXRa partner concentration 90 nM)
- MEASUREMENT DESCRIPTION: PBM binding z-score (relative to random genomic background probes); higher = stronger binding; sequences stand for … in GC…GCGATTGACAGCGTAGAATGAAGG
The sequences listed here are annotated with their PBM binding z-score.

CCTAGTTGGTCAGGAGGTCACACAACGGATATGA : 1.95
GCAGAAAGGTGAAACGCAGGTAACTCAGGGTGGC : 3.02
CCTACTCGGCCATCAGGTCATTGATATCAACGTT : 2.58
GTACCAAGGTGAACAGGTCGTTGATGAGTAGGCG : 1.79
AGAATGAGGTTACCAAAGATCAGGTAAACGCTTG : 3.32
AGAACGAGGTTACCAAAGATCAGGGAAACGCTTG : 2.75

Identify measured PBM binding z-score corresponding to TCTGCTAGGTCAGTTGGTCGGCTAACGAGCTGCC
2.4

Specify PBM binding z-score for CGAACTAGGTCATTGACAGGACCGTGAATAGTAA and stop.
8.09

Item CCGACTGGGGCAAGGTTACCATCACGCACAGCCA : provide PBM binding z-score
3.35

Note PBM binding z-score for the sequence shown: ATCGAAAGGTCGAAGGTGAGTATTCCCACCCGAA
0.38

State, in one line, measured PBM binding z-score of CCTACTGGGCCACGAAAGTTCATTGATTCAGTGA
6.16

Give the reported value of PBM binding z-score for this record: TGAATGAGGTAAAAGATCAGGGAACGTGGCGTCG
0.669

Name the recorded PBM binding z-score of the sequence listed here: ATTTGTAGGTTAAGGGTCATTCAGGTTGGTTCGC
6.4

Let me know recorded PBM binding z-score for AGAACGAGGGCACGCTGAGTAGATAGCAGAGTAG , thanks.
4.04

Answer with the recorded PBM binding z-score for the sequence listed here: ACTTACGAGTCAACGAGGTTATAGCACGCGTATA
-0.235

Give the measured PBM binding z-score for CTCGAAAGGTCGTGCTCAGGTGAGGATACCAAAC
0.783

Quick one: give measured PBM binding z-score for TCATACAGGTAAACAGGTGAAAGTCCGTAAGTTA
3.22

Tell me its PBM binding z-score given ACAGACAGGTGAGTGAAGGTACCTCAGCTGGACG as the entry.
0.368

Name the recorded PBM binding z-score of the item TTACCAAGGTGAGCTGAGGTCGGTGATCCAACTC in your answer.
0.759

Consider the sequence AGTCAAAGTTCATTAGGTAACGTAAGATTCAGCT . State its measured PBM binding z-score.
1.93
